property_measured: Ki (nM)
API: value field is a number in nM; no unit string.

Inquiry: Recall the recorded Ki for S=C(NC1CCCCC1)N1CCC(c2cnc[nH]2)CC1 with Hrh3 protein (Rattus norvegicus) and state it.
Sequence (Q5PPG3 whole entry): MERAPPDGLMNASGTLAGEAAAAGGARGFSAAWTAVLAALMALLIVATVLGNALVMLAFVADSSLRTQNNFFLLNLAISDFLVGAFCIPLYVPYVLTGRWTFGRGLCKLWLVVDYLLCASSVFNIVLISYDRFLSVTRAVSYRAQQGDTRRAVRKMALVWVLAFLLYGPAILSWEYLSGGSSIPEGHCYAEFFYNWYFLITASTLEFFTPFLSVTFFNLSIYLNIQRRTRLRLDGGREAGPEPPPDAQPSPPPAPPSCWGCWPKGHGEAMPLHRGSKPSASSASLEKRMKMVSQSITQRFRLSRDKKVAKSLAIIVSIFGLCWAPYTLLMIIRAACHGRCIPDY
Reply text: 1.8
